Measured cell viability, listed per entry for reference.
System: Vero E6
Assay protocol: cell viability relative to DMSO; higher = less toxic
Experimental context: 72 h; 1 nM
Enter your answer as a number in %; do not include the unit.

{"columns": ["Molecule", "cell viability / %"],
 "data": [
  ["Cc1ccc(OC[C@@H](O)[C@H](C)NC(C)C)c2c1CCC2 (racemic)", 98.6],
  ["Cc1cnc(NC(=O)Nc2cc(Br)c(C)cc2OC[C@@H]2CNCCO2)cn1", 101],
  ["CCc1cnn2c(NCc3ccc[n+]([O-])c3)cc(N3CCCC[C@H]3CCO)nc12", 101],
  ["Cc1nc(C#Cc2ccnc(Cl)c2)c(C)n1-c1ccc(OC(F)(F)F)cc1", 102]
]}

# molecule NC[C@H]1O[C@H](O[C@H]2[C@H](O[C@@H]3O[C@H](CO)[C@@H](O)[C@H]3O)[C@@H](O)[C@H](N)C[C@@H]2N)[C@H](N)[C@@H](O)[C@@H]1O [ribostamycin-sulfate] ; its cell viability = 103

# molecule `N=C(N)S/C=C\C(=O)O` ; its cell viability = 98.3

----------
Tested on: A549-ACE2 infected with SARS-CoV-2
Assay protocol: cell count relative to DMSO; higher = less toxic
Experimental context: 0.3 µM; 24 h
Property name: cell count (%)
Enter your answer as a number in %; do not include the unit.

{"columns": ["Smiles", "cell count (%)"],
 "data": [
  ["CCCCCCCCNC(=O)/C(C#N)=C/c1cn(CCCN(C)C)c2ccccc12", 97]
]}

# compound `Nc1ccc(C(=O)Nc2cccc(-c3nc(N4CCOCC4)c4oc5ncccc5c4n3)c2)cn1` ; its cell count = 100

# compound `CNC(=O)c1cc(Oc2ccc(NC(=O)Nc3ccc(Cl)c(C(F)(F)F)c3)cc2)ccn1` ; its cell count = 101

# compound `Cc1nnc2n1-c1sc(CCC(=O)N3CCOCC3)cc1C(c1ccccc1Cl)=NC2` ; its cell count = 101

# compound `Cn1c(NC[C@@H](N)Cc2ccccc2)nc(-c2ccncc2)c(-c2ccc3ccccc3c2)c1=O` ; its cell count = 93

# compound `N#Cc1ccc(N2N=C3c4ccc(C(=O)O)cc4CC[C@@H]3[C@@H]2C2CCCC2)cc1Cl` ; its cell count = 100

# compound `O=c1oc(-c2ccc(C(F)(F)F)cc2)nn1Cc1cc(Cl)ccc1O` ; its cell count = 101

----------
Tested on: HepG2
Assay protocol: cell viability relative to DMSO; higher = less toxic
Experimental context: 72 h; 10000 nM
I'd appreciate it if you marked entries satisfied when cell viability is lower than 80% and not satisfied when it is not.

{"columns": ["Compound", "Class"],
 "data": [
  ["O=C(NC1CCNCC1)c1n[nH]cc1NC(=O)c1c(Cl)cccc1Cl", "satisfied"],
  ["Cc1c(O)cccc1C(=O)N[C@@H](CSc1ccccc1)[C@H](O)CN1C[C@H]2CCCC[C@H]2C[C@H]1C(=O)NC(C)(C)C", "satisfied"],
  ["CN(C)c1cccc(-c2c3c(=O)n(-c4ccccc4Cl)[nH]c3cc(=O)n2C)c1", "not satisfied"],
  ["CC(C)=CCC/C(C)=C/CC/C(C)=C/CCC(=O)OC/C=C(\\C)CCC=C(C)C [geranyl-farnesylacetate]", "not satisfied"],
  ["N#CCNC(=O)c1ccc(-c2ccnc(Nc3ccc(N4CCOCC4)cc3)n2)cc1", "satisfied"],
  ["CCCCn1c(-c2ccccc2)nc(-c2ccccc2)c1CN(Cc1ccc2c(c1)OCO2)Cc1ccc2c(c1)OCO2", "not satisfied"],
  ["O=C(O)c1ccc(N2C(=O)/C(=C/c3ccc(-c4ccc([N+](=O)[O-])cc4)o3)C=C2c2ccccc2)cc1", "not satisfied"]
]}

Then this compound:
[ask] Find out if reported cell viability for `CCNCc1cc(C(C)(C)C)c(O)c(C(C)(C)C)c1` is less than 80%
[reply] not satisfied

----------
Measured cell viability, listed per entry for reference.
System: HepG2
Assay protocol: cell viability relative to DMSO; higher = less toxic
Experimental context: 72 h; 100 nM
Enter your answer as a number in %; do not include the unit.

{"columns": ["Compound", "Property name", "Recorded value"],
 "data": [
  ["CC[N+]1(C)CCCC(OC(=O)C(O)(c2ccccc2)c2ccccc2)C1 (stereo not drawn) [pipenzolate]", "cell viability", 97.7]
]}

# compound C=CC(C)(O)CCC=C(C)C (stereo not drawn) ; its cell viability = 96.5

# compound `COCCOc1cnc2ccn([C@H](C)c3nnc4c(F)cc(-c5cnn(C)c5)cn34)c(=O)c2c1` ; its cell viability = 99.2

# compound `CC(=O)O[C@@H]1CC[C@@]2(C)[C@@H](CC[C@]3(C)[C@@H]2C(=O)C=C2[C@@H]4[C@@H](C)[C@H](C)CC[C@]4(C)CC[C@]23C)[C@@]1(C)C(=O)O` ; its cell viability = 107

# compound `CC(C)(O)CC(=O)NCCn1ccc2ncnc(Nc3ccc(Oc4cccc(C(F)(F)F)c4)c(Cl)c3)c21` ; its cell viability = 113

# compound `Fc1ccc(CN2CCC(Nc3ccc(C(F)(F)F)nn3)CC2)cc1F` ; its cell viability = 91.2

----------
System: Calu-3
Assay protocol: relative viability EC50 (midpoint between 100% and the lowest measured viability); higher = less toxic
Experimental context: 72 h
Where a name gives a salt, the structure may show the parent alone.
Measured relative viability EC50, listed per entry for reference.

# annotated cases, reported relative viability EC50 shown
{"columns": ["Molecule", "Recorded value"],
 "data": [
  ["O=C(O)[C@H]1CC[C@H](c2cc3cccnc3c(-c3cccc(F)c3)n2)CC1", "> 10 µM"],
  ["CCN(CC)S(=O)(=O)c1ccc(C(=O)O)cc1", "> 10 µM"],
  ["Nc1ccn([C@H]2CO[C@@H](CO)S2)c(=O)n1", "> 10 µM"],
  ["COc1c(C)c(C(=O)c2ccc(N)c(C(=O)O)c2)n2ccccc12", "> 10 µM"],
  ["CCC[C@H](NC(=O)/C(C#N)=C/c1cccc(Br)n1)c1ccccc1", "3.94 µM"],
  ["COc1cc2ncnc(Nc3ccc(F)c(Cl)c3)c2cc1NC(=O)/C=C/CN1CCCCC1", "0.027 µM"],
  ["O=C(/C=C/c1cccc(F)c1)NC1CC1 [cinflumide]", "> 10 µM"],
  ["COc1cc(N)c(Cl)cc1C(=O)CCC1CCN(CCNS(C)(=O)=O)CC1", "> 10 µM"]
]}

# molecule O=C(O)C1=C(CSc2nnnn2CS(=O)(=O)O)CS[C@@H]2[C@H](NC(=O)[C@H](O)c3ccccc3)C(=O)N12 [Cefonicid (sodium)] ; its relative viability EC50 = > 10 µM

# molecule `N#C/C(=C\c1ccc(O)c(O)c1)C(=O)Nc1ccccc1` ; its relative viability EC50 = > 10 µM

# molecule CN1[C@@H]2CC[C@H]1C[C@@H](OC(=O)C(CO)c1ccccc1)C2 (some centres not stated) [ATROPINE SULFATE] ; its relative viability EC50 = > 10 µM

----------
Test system: Vero E6
Assay protocol: cell viability relative to DMSO; higher = less toxic
Experimental context: 72 h; 1 nM
Property name: cell viability
Answer with the value and then the unit.

# annotated cases, reported cell viability shown
{"columns": ["Molecule", "cell viability"],
 "data": [
  ["CSCC[C@H](NC(=O)[C@H](Cc1ccccc1)NC(=O)CNC(=O)CNC(=O)[C@@H](N)Cc1ccc(O)cc1)C(=O)O", "93.8%"],
  ["COc1cc(C(=O)N2CCOCC2)cc(OC)c1OC", "106%"],
  ["CCN(CC)CCCCNc1ncc2cc(-c3cc(OC)cc(OC)c3)c(NC(=O)NC(C)(C)C)nc2n1", "94.5%"],
  ["CC12CCC(C(Br)C1=O)C2(C)C (stereo not given)", "91.8%"]
]}

# molecule `CCC[C@H](NC(=O)/C(C#N)=C/c1cccc(Br)n1)c1ccccc1` ; its cell viability = 101%

----------
Measured cell viability, listed per entry for reference.
System: HepG2
Assay protocol: cell viability relative to DMSO; higher = less toxic
Experimental context: 72 h; 1 nM
Answer with the value and then the unit.

{"columns": ["Compound", "cell viability"],
 "data": [
  ["COc1cc2c(cc1OC)-c1cc3ccc(OC)c(OC)c3c[n+]1CC2 [palmatine-chloride]", "110%"]
]}

Here C[C@@H]1O[C@@H](O[C@H]2[C@H](Oc3cc(O)c(C(=O)CCc4ccc(O)cc4)c(O)c3)O[C@H](CO)[C@@H](O)[C@@H]2O)[C@H](O)[C@H](O)[C@H]1O [naringin-dihydrochalcone] was tested on HepG2, and its cell viability came to 110%

Here CC(C)=CCC/C(C)=C/CC/C(C)=C/CCC(=O)OC/C=C(\C)CCC=C(C)C [geranyl-farnesylacetate] was tested on HepG2, and its cell viability came to 101%

Here `CC(=O)O[C@@H]1CC[C@@]2(C)[C@@H](CC[C@]3(C)[C@@H]2C(=O)C=C2[C@@H]4[C@@H](C)[C@H](C)CC[C@]4(C)CC[C@]23C)[C@@]1(C)C(=O)O` was tested on HepG2, and its cell viability came to 109%

Here `Cc1nc(C#Cc2ccnc(Cl)c2)c(C)n1-c1ccc(OC(F)(F)F)cc1` was tested on HepG2, and its cell viability came to 100%

Here `O=C(CCCCCCCC(=O)NCCO)NCCO` was tested on HepG2, and its cell viability came to 112%

Here `Cc1cc(Cl)ccc1OCCCC(=O)NO` was tested on HepG2, and its cell viability came to 100%

Here `Cc1c(O)cccc1C(=O)N[C@@H](CSc1ccccc1)[C@H](O)CN1C[C@H]2CCCC[C@H]2C[C@H]1C(=O)NC(C)(C)C` was tested on HepG2, and its cell viability came to 107%
